The values you see were collected from patent US20220177587A1.

Task for the reader: assign each of the following binders its reported MFI.
- TEST SYSTEM: CD28 (human) (UniProt P10747)
- ASSAY NOTES: flow cytometry, Expi293F cells transfected with CD28
Numbers only, in MFI.

# example entries with known answers
• CD80 V22A/L70Q/S121P ECD-Fc (Fc fusion) VIHVTKEVKEVATLSCGHNVSAEELAQTRIYWQKEKKMVLTMMSGDMNIWPEYKNRTIFDITNNLSIVIQALRPSDEGTYECVVLKYEKDAFKREHLAEVTLSVKADFPTPSISDFEIPTPNIRRIICSTSGGFPEPHLSWLENGEELNAINTTVSQDPETELYAVSSKLDFNMTTNHSFMCLIKYGHLRVNQTFNWNTTKQEHFPDN = 5
• CD80 S44P/L70Q/A91G/T130A ECD-Fc (Fc fusion) VIHVTKEVKEVATLSCGHNVSVEELAQTRIYWQKEKKMVLTMMPGDMNIWPEYKNRTIFDITNNLSIVIQALRPSDEGTYECVVLKYEKDGFKREHLAEVTLSVKADFPTPSISDFEIPTSNIRRIICSASGGFPEPHLSWLENGEELNAINTTVSQDPETELYAVSSKLDFNMTTNHSFMCLIKYGHLRVNQTFNWNTTKQEHFPDN = 88
• CD80 I67T/L70Q/A91G/I118V/T120S ECD-Fc (Fc fusion) VIHVTKEVKEVATLSCGHNVSVEELAQTRIYWQKEKKMVLTMMSGDMNIWPEYKNRTIFDITNNLSTVIQALRPSDEGTYECVVLKYEKDGFKREHLAEVTLSVKADFPTPSISDFEVPSSNIRRIICSTSGGFPEPHLSWLENGEELNAINTTVSQDPETELYAVSSKLDFNMTTNHSFMCLIKYGHLRVNQTFHWNTTKQEHFPDN = 98

Now take the following binder into account.
Report MFI for CD80 L70Q/A91G/T110A/I118V/T120S/T130A ECD-Fc (Fc fusion) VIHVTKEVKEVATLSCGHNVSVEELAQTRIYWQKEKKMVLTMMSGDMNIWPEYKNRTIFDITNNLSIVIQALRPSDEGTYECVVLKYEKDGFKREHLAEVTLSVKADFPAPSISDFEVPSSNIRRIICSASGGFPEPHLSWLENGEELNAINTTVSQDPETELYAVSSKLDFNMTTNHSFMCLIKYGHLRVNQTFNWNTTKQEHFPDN
8
